molecular target: Gal(b1-4)GlcNAc(b1-3)Gal(b1-4)GlcNAc(b1-3)Gal(b1-4)GlcNAc(b1-3)Gal(b1-4)GlcNAc(b1-2)Man(a1-3)[Gal(b1-4)GlcNAc(b1-3)Gal(b1-4)GlcNAc(b1-3)Gal(b1-4)GlcNAc(b1-3)Gal(b1-4)GlcNAc(b1-2)Man(a1-6)]Man(b1-4)GlcNAc(b1-4)[Fuc(a1-6)]GlcNAc; assay: glycan array binding signal (z-score within array); higher = stronger binding; conditions: glycan notation: IUPAC condensed, linker removed
The entries come from a sample that favours the strongest signals as a whole.
recorded-endpoint: glycan array binding signal (z-score)
Please give the numeric answer without any surrounding text.

See these solved cases before continuing.
1. BTL (Bryothamnion triquetrum) (protein) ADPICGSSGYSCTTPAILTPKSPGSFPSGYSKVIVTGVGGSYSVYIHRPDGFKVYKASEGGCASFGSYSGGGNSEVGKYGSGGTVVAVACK | 4.48
2. OS9-MRH (Homo sapiens), Q13438 (protein) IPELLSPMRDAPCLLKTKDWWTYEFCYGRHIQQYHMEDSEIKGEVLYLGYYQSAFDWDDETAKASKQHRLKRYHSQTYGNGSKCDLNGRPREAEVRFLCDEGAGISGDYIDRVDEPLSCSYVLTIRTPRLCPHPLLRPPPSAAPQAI | -0.755
3. Threefoil (Haloarcula marismortui) (protein) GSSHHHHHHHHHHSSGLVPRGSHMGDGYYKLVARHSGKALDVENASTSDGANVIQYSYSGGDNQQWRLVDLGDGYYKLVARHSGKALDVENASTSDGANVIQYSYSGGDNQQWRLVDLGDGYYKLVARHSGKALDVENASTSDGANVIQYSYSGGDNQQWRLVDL | 3.74
4. TIM1 (protein) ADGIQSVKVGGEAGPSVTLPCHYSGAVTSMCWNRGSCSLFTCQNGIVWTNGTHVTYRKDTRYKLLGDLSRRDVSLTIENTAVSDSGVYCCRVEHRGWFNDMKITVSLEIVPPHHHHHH | 0.223
5. MPA (Maclura pomifera), P18674 (protein) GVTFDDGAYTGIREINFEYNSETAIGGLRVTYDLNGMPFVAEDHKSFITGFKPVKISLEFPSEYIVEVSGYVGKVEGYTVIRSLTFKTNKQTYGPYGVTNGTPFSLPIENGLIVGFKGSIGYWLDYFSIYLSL | 4.26

Then there is this binder:
Provide only the value of recorded glycan array binding signal (z-score) for Jacalin (Artocarpus integrifolia) (protein) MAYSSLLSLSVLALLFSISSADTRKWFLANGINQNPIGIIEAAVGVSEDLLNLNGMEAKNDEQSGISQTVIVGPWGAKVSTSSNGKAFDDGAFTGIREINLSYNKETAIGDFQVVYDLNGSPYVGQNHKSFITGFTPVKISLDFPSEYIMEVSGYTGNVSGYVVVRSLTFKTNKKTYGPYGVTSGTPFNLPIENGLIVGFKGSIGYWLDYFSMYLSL 0.12
